assay: NCI Yeast Anticancer Drug Screen. Data for the cln2 rad14 strain (AID 165); settings: S. cerevisiae cln2 rad14 strain, at 5.0 µM (retest, dose inferred, filed as 0.5)
About 79,000 compounds went through this panel and 15% of them were active in at least one assay; those are over-represented in the sample as a whole. Calls of active or inactive are those of the source. No stated cut-off is given here; in the data, active means growth inhibition above about 70%; inactive means the rest. Where a SMILES comes first, the peptide text is derived from it. [ ]: non-standard residue; d: D form. ξ: configuration not given here. ξD = NC(CC(=O)O)C(=O)O
Entry note: the call must match one of t (active), f (inactive)

Exam item: Each molecule tested received a call. Report the one for CN1CCc2cc3c(c4c2C1C(O)c1ccccc1-4)OCO3 (stereo not drawn) .
Marked response: f

Exam item: // return assay outcome for CC1(C)CCCC2=C1C(=O)N(SC(Cl)(Cl)Cl)C2=O
Marked response: t

Exam item: // outcome(item) with item = OC(c1cc(-c2ccc(C(F)(F)F)cc2)nc(C(F)(F)F)c1)C1CCCCN1 (stereo not drawn)
Marked response: f

Exam item: Per the records of this test, what outcome belongs to OC(CSc1ccccc1)CN1CCN(c2ccc(Cl)cc2)CC1 (stereo not drawn) ?
Marked response: f

Exam item: Returns: the outcome recorded for CCCCCC[C@@H](O)C/C=C\CCCCCCCC(=O)OCCOC in this assay.
Marked response: f

Exam item: Kindly provide the recorded test outcome for the following molecule: O=C(Cc1nc2cc(Cl)c(Cl)cc2nc1CC(=O)c1cccnc1)c1cccnc1
Marked response: f

Exam item: Identify the outcome logged in this assay for the molecule shown: Cc1ccc2cccc(OC(=O)Nc3cccc(C(F)(F)F)c3)c2n1
Marked response: f

Exam item: Hi team, can someone confirm the assay call for CC1=CC[C@@H]2[C@@H](CC[C@@]2(C)O)C(C)(C)[C@H]1CC[C@@H]1[C@@]2(C)CCC(=O)C(C)(C)O[C@@H]2CC[C@]1(C)O ?
Marked response: f

Exam item: // return assay outcome for COc1c(/C=C/C=O)cc2c(c1OC)OCO2
Marked response: f

Exam item: Tell me the assay call for Oc1ccc(Br)cc1Sc1cc(Br)ccc1O please.
Marked response: f

Exam item: For O=C(O)CCCOc1cc(-c2ccccc2F)nc2cc3c(cc12)OCO3 , which call appears in the assay record?
Marked response: f

Exam item: What call does the record list for O=[N+]([O-])c1ccc(C(Br)c2ccc([N+](=O)[O-])cc2)cc1 ?
Marked response: f

Exam item: Status in this test for NC(=S)N/N=C\c1nccc2c(N)cccc12 ?
Marked response: f

Exam item: Please let me know the test result on file for Cc1nc(Sc2nc3ccc([N+](=O)[O-])cc3s2)sc1C .
Marked response: f

Exam item: Record lookup: outcome of this test for NC(=S)N/N=C\c1nccc2c(C(F)(F)F)cccc12 ?
Marked response: f

Exam item: // param item: C(=N\Nc1ccc2ccccc2n1)/c1ccccn1 ; yields the recorded call
Marked response: f

Exam item: Status in this test for CN(C)CNC(=S)S ?
Marked response: t

Exam item: So what was the verdict on NCC(=O)NC(CC(=O)O)C(=O)O (stereo not drawn) (H-Gly-[ξD]-OH) in this test?
Marked response: f

Exam item: Fill in: this test's call for COc1ccc(N=CC2CCCCC2=O)c([N+](=O)[O-])c1 (stereo not drawn) is ___
Marked response: f

Exam item: I would be grateful if you could indicate the recorded call for COc1ccc(C(OCC2OC(n3ccc(NC(=O)c4ccccc4)nc3=O)C(O)C2O)(c2ccccc2)c2ccccc2)cc1 (stereo not drawn) .
Marked response: t

Exam item: // outcome(item) with item = COc1ccc(/C(C#N)=C/c2cccc(N)c2)cc1
Marked response: f

Exam item: Would you mind telling me which call this test gave c1ccc(-c2nc(N=C3N=c4ccccc4=N3)[nH]c2-c2ccccn2)nc1 ?
Marked response: f

Exam item: Called result for CCCCN(CCCC)C(=O)C(C)OC(C)=O (stereo not drawn)
Marked response: f
